Can you tell me z-score for the items I'm about to list?
- Measurement Protocol: splicing luciferase reporter signal modulators, primary screen, spliceosome inhibition project, cell-based, HEK293, splice +/- reporter (AID 1101);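 note: HEK293 cells carrying a splicing-competent luciferase reporter gene; test concentration not given here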
- Test Settings: luminescence, 24 h, higher = more signal, called active from +8 up or from −8 down
// return just the number, without any unit appended

Report measured z-score; entry is CCC(CC)C(O)C1C=CC2C(=O)N(C)C(=O)C2N1Nc1ccccc1 (stereo unspecified)
0.464

Report measured z-score; entry is `CCCCCCC#C[Si](O[C@H](c1ccccc1)c1cn([C@H](CO)Cc2ccccc2)nn1)(C(C)C)C(C)C`
-0.77

Report measured z-score; entry is `C=C(CCCC)C(=O)CC[C@H](OC(=O)c1cccnc1)c1ccccc1OCCO`
-0.637

Report measured z-score; entry is CCCCCC1=C2CNC(CCC)(C(=O)OC)C=C2C(C)C1=O (stereo unspecified)
2.6

Report measured z-score; entry is `[N-]=[N+]=NCc1ccccc1[C@@H]1OC(c2ccc(OCCCO)cc2)=N[C@]1(CCS(=O)(=O)c1ccccc1)C(=O)NCc1ccccc1`
-0.392

Report measured z-score; entry is `C#CCN(CC=C(C)C)[C@H](CO)c1ccccc1`
-1.21

----------
Can you tell me composite z-score for the items I'm about to list?
- Measurement Protocol: COS7 lysate on small-molecule microarray, probe aHis, 635 nm (AID 1123);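 note: z-score combines 667nm fluorescence intensity with signal-to-noise per printed compound spot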
- Test Settings: COS7 cell lysate, fluorescence, higher = more signal
// return just the number, without any unit appended

Report measured composite z-score; entry is `[N-]=[N+]=NCc1ccccc1C[C@]1(C(=O)N2CCOCC2)N=C(c2ccc(OCCCO)cc2)O[C@H]1c1ccccc1N=[N+]=[N-]`
2.53

Report measured composite z-score; entry is `CC(C)C(=C=CC[C@@H](O)c1ccccc1OCCO)CCO`
-0.501

Report measured composite z-score; entry is `CC(=O)N1Cc2ccccc2C[C@@]2(COC(c3ccc(OCCCO)cc3)=N2)C1=O`
2.38

Report measured composite z-score; entry is `CN(C)C(=O)[C@@]1(Cc2ccccc2CN=[N+]=[N-])N=C(c2ccc(OCCCO)cc2)O[C@H]1c1ccccc1`
2.69

Report measured composite z-score; entry is `COc1ccc(C#Cc2ccc3c(c2)[C@]2(C(=O)N3)[C@H](c3ccccc3OCCO)N3[C@H](c4ccccc4)[C@H](c4ccccc4)OC(=O)[C@H]3[C@@H]2C(=O)O)cc1`
2.27

Report measured composite z-score; entry is CCOC(=O)[C@H]1CC=C2CC1C(=O)N1CCC[C@@H]1[C@@H]2O[Si](C)(C)C(C)(C)C (stereo partly specified)
0.168

Report measured composite z-score; entry is `CC(C)(C)C(=O)N[C@@H](c1ccc(Cl)cc1)[C@]1(C)C[C@H]1C1CCCCC1`
2.12

Report measured composite z-score; entry is `O=C1O[C@H](c2ccccc2)[C@H](c2ccccc2)N2[C@H]1[C@@H](C(=O)N1CCN(c3ncccn3)CC1)[C@]1(C(=O)Nc3ccc(C#CC4=CCCCC4)cc31)[C@H]2c1ccc(O)cc1`
1.81

Report measured composite z-score; entry is `COc1ccc(CCN2C(=O)[C@@]3(Cc4ccccc42)c2ccccc2C(=O)N(Cc2ccccc2C(F)(F)F)[C@H]3c2ccc(CO)cc2)cc1`
0.387

Report measured composite z-score; entry is `CCOC(=O)C[C@H]1[C@H](OC(=O)c2cc3ccccc3oc2=O)[C@@H](NC(=O)C2CCCCC2)c2cc(OCCCO)ccc2N1C(=O)c1ccccc1`
0.112

Report measured composite z-score; entry is O=C1C2C=CC(C(O)c3c(F)cccc3Cl)N(Nc3ccccc3)C2C(=O)N1c1ccccc1 (stereo unspecified)
2.81
